assay: AUC (0 to 8 hrs) in C57BL/6J mouse at 20 mg/kg, po; format: ADME, organism-based; design: time < 8 hr, dose 20 mg/kg, route oral; settings: plasma
PROPERTY MEASURED: AUC(0-t) at 8 h (µg·h/mL)
Unit µg·h/mL implied. Number only.

Could you share which AUC(0-t) at 8 h value was measured for "Fc1cccc2c1CCC1(CCN(c3ccc(-c4nnc(Cc5cccnc5)o4)nn3)CC1)O2" ?
6.8

Could you share which AUC(0-t) at 8 h value was measured for "c1cncc(Cc2nnc(-c3ccc(N4CCC5(CCc6ccccc6O5)CC4)nn3)o2)c1" ?
2.4

Could you share which AUC(0-t) at 8 h value was measured for "Clc1cccc2c1CCC1(CCN(c3ccc(-c4nnc(Cc5cccnc5)o4)nn3)CC1)O2" ?
1.4

Could you share which AUC(0-t) at 8 h value was measured for "Cc1cccc2c1CCC1(CCN(c3ccc(-c4nnc(Cc5cccnc5)o4)nn3)CC1)O2" ?
2.1

Origin of the recorded values: ChEMBL document CHEMBL1275283
